# System: SK-MEL-28 melanoma
# EXPERIMENT SUMMARY: NCI-60 one-dose screen, 48 h (100 = growth as untreated, 0 = no growth, -100 = all killed)
# CONDITION SET: 10 µM unless noted
This is part of a sample that, as a whole, favours compounds with a hit. Of some 83,000 tested, about 20% had one in any assay.
Measured growth accompanies every entry in the list below.
RECORDED ENDPOINT: growth (%)

>>> number("CNc1ccc2c(c1)c1ccccc1n2C")
117
>>> number("c1ccc2c(c1)Nc1cc3ccccc3cc1N2")
83.3
>>> number("O=C1c2ccccc2C(=O)c2sc(Nc3ccc(Cl)cc3)nc21")
-9.35
>>> number("CN(C)c1ccc(N=Nc2cccc3ccccc23)cc1")
103
>>> number("S=C(NCCNC(=S)[S][Sn]([c]1ccccc1)([c]1ccccc1)[c]1ccccc1)[S][Sn]([c]1ccccc1)([c]1ccccc1)[c]1ccccc1")
-98.8
>>> number("CCN(CC)CCOc1ccc(-c2nc3cc(Cl)ccc3s2)cc1")
-79.7
>>> number("O=C1c2ccccc2C(=O)c2sc(Nc3cccc(Cl)c3)nc21")
-78.1
>>> number("CN(C)C(=O)SC1=C(c2c(Cl)cccc2Cl)C(=O)c2ccccc21")
-34.1
>>> number("Cc1c2ccccc2c(C)c2c1ccc1ccccc12")
92.8
>>> number("Cn1c2ccccc2c2nnc(N/N=C/c3ccccn3)nc21")
18.5
>>> number("CCOc1ccc(-c2nc3ccc(-c4nc5ccc(N6CCN(C)CC6)cc5[nH]4)cc3[nH]2)cc1")
-88.6
